Biological target: T1, Human CD3eg linker (human)
T1 construct: single-chain construct; also called recombinant human CD3
T1 chain: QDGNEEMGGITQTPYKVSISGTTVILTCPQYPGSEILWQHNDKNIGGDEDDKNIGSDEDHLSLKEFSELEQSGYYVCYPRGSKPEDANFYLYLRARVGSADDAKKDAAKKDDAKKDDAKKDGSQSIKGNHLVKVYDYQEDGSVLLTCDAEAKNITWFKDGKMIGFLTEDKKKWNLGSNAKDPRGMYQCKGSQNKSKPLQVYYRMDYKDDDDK
Assay: SPR, vs unmutated H183/L072
measuredQuantity: fold change of affinity (fold)
Response body: numeric value in fold, unit text excluded.

dBBDu183H H96K/dBBDu072L (antibody, name in Kabat numbering, V domains shown) VH: QVQLVESGGGLVQPGRSLRLSCAASGFTFSNAWMHWVRQAPGKGLEWVAQIKDKGNAYAAYYAPSVKGRFTISRDDSKNSIYLQMNSLKTEDTAVYYCHYVKYASASTVLPAFGVDAWGQGTTVTVSS VL: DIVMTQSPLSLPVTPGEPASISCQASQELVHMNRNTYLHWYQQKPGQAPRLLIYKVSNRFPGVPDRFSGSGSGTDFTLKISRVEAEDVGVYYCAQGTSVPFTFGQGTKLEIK :: 0.6

Continue with the binder presented below.
The reported fold change of affinity of the binder dBBDu183H K64H/dBBDu072L (antibody, name in Kabat numbering, V domains shown) VH: QVQLVESGGGLVQPGRSLRLSCAASGFTFSNAWMHWVRQAPGKGLEWVAQIKDKGNAYAAYYAPSVHGRFTISRDDSKNSIYLQMNSLKTEDTAVYYCHYVHYASASTVLPAFGVDAWGQGTTVTVSS VL: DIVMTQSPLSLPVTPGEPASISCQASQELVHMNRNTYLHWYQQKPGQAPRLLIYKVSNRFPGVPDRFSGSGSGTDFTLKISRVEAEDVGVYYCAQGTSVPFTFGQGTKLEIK was 1
